B1: TPR t1 (parent)
chain: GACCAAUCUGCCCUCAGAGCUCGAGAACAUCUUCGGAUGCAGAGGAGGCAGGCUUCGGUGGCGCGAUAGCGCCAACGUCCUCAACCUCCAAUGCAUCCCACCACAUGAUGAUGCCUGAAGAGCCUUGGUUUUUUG

# Variants of: B1
# method-summary: polymerase ribozyme fitness, log enrichment relative to wild type (log ratio); higher = more active; in vitro selection for triplet polymerase activity
Threshold rule: polymerase ribozyme fitness (log ratio) greater than or equal to -3 is True; below that, False.

In [3]: df
Out[3]:
      sequence_change  category
0  U7A C34A G61U C97U      True
1          C15A U116A     False
2           G51C C73G     False

Reported polymerase ribozyme fitness (log ratio) reaches at least -3 for U7G C31U C62U A100C U106A G113A ?
False

Reported polymerase ribozyme fitness (log ratio) reaches at least -3 for G36A U55G C115A ?
True

The reported measurements were obtained from the RNAGym collection of RNA variant scans (doi:10.1073/pnas.2313332121).
